Test system: KM12 colon
assayExplanation: NCI-60 one-dose screen, 48 h
conditionsUsed: 10 µM
This is part of a sample that, as a whole, favours compounds with a hit. Of some 83,000 tested, about 20% had one in any assay. Calls of active or inactive are those of the source. The calls were made as follows: active = growth percent below 10; inactive = the rest.
Outcome codes: 1.0 = active, 0.0 = inactive

> print(dat)
                                    compound         tgt  classname
 1  COc1ccc(C2=Cn3c(CCC(=O)c4nc5ccccc5[nH]4)nnc3SC2)cc1  KM12 colon        0.0
 2                               CC(C)(O)CCl  KM12 colon        0.0
 3  Cc1cc(Cl)ccc1Nc1nc(C(F)(F)F)ccc1C(=O)N/N=C/c1cccc(O)c1  KM12 colon        0.0
 4  S=C(SSC(=S)N(c1ccccc1)c1ccccc1)N(c1ccccc1)c1ccccc1  KM12 colon        0.0
 5  N=C1S/C(=C/c2ccc(-c3ccc4c(c3)C(=O)NC4=O)o2)C(=O)N1c1ccc(Br)cc1  KM12 colon        0.0
 6          CCCc1cn(CC(=O)Nc2nc3ccccc3s2)nn1  KM12 colon        0.0
 7  Cc1cn(-c2cccc(NC(=O)c3ccc(C)c(Nc4nccc(-c5cccnc5)n4)c3)c2)cn1  KM12 colon        1.0
 8  CCN(CC)CCOC(=O)c1cc(OCc2ccccc2)c(OCc2ccccc2)c(OCc2ccccc2)c1  KM12 colon        0.0
 9  CN(C)CCCOc1ccccc1NC1=C(Cl)C(=O)C(Nc2ccccc2OCCCN(C)C)=C(Cl)C1=O  KM12 colon        1.0
10           Nc1nc(N)c(N)c(Nc2ccc(CCO)cc2)n1  KM12 colon        0.0

* * *

Test system: K-562 leukemia
assayExplanation: NCI-60 one-dose screen, 48 h
conditionsUsed: 10 µM
The panel holds about 83,000 compounds, 20% with a hit somewhere; the sample as a whole holds those more often. The source made the active and inactive calls. Rule for the calls: active = growth percent below 10; inactive = the rest.
Outcome codes: active, inactive

> print(dat)
                                   compound  classname
1  CSc1ccc(-c2cc(-c3ccc(NC(=O)CCCN4CCCC4)cc3)nc(-c3ccc(NC(=O)CCCN4CCCC4)cc3)c2)cc1     active
2  CCN(CC)CCOc1cccc2c1C(=O)c1cccc(OCCN(CC)CC)c1C2=O   inactive
3  CC(C)(C)c1ccc(S(=O)(=O)N[C@H]2CC[C@H]3[C@@H]4CCc5cc(OS(=O)(=O)O)ccc5[C@H]4CC[C@]23C)cc1   inactive
4  O=C1NC(=O)c2c(CCCSc3nc4ccccc4c(=O)n3CCc3ccccc3)cccc21   inactive
5  CC(C)(C)OC(=O)CC(S(=O)(=O)c1ccccc1)S(=O)(=O)c1ccccc1   inactive

* * *

Test system: NCI-H226 lung
assayExplanation: NCI-60 one-dose screen, 48 h (100 = growth as untreated, 0 = no growth, -100 = all killed)
conditionsUsed: 10 µM
This is part of a sample that, as a whole, favours compounds with a hit. Of some 83,000 tested, about 20% had one in any assay.
Below, each entry is listed with its recorded growth.
testReadout: growth (%)

compound	measurementUnit	reported
CCc1c2c(nc3ccc(OC(=O)N4CCC(N5CCCCC5)CC4)cc13)-c1cc3c(c(=O)n1C2)COC(=O)[C@]3(O)CC	%	7.44
CC(C)(C)c1nn(-c2ccccc2)c2c1CC1(CN2Cc2ccc(Cl)cc2)C(=O)c2ccccc2C1=O	%	81.9
CC[C@@H](C(=O)[C@@H](C)[C@@H](O)[C@H](C)[C@@H]1O[C@@H]([C@@H](CC)C(=O)N(CC)CC)CC[C@@H]1C)C1O[C@]2(C=CC(=O)[C@]3(CC[C@@](C)([C@H]4CC[C@](O)(CC)[C@H](C)O4)O3)O2)[C@H](C)C[C@@H]1C (stereo partly specified)	%	13.4
COc1cc(Cc2cc(-c3ccccc3)n[nH]c2=O)cc(OC)c1OC	%	68.5
CN(C)CCCOc1ccc(NC2=C(Cl)C(=O)C(Nc3ccc(OCCCN(C)C)cc3)=C(Cl)C2=O)cc1	%	-84.1
CCN(CC)CCCOc1cccc2c1C(=O)c1cccc(OCCCN(CC)CC)c1C2=O	%	42.8
Cc1c[nH]c(=O)n(Cc2nnc(CCC(=O)c3nc4ccccc4[nH]3)o2)c1=O	%	31.7
Cc1cc(SCc2ccccc2)nc(N)n1	%	115
CCCCC1(O)CCCCC1	%	97.3
CC[N+](CC)=c1ccc2nc3c(cc(NCc4ccccc4)c4ccccc43)oc-2c1	%	-34.4
O=C1c2ccccc2C(=O)N1CCCCNc1ccccc1	%	91.7
O=C(Nc1ccc(F)cc1)c1cc2ccccc2cc1O	%	74.2
COc1cc(-c2nn(-c3cccc(NC(=O)NCCNS(=O)(=O)c4ccc(Cl)cc4)c3)cc2-c2ccncc2)ccc1Cl	%	27.3
CN(C)CCCSc1ccccc1NC1=C(Cl)C(=O)C(Nc2ccccc2SCCCN(C)C)=C(Cl)C1=O	%	93.5
Fc1ccc2[nH]cc(-c3nc(-c4ccsc4)cs3)c2c1	%	78.5
CC(=O)C1N=NCC1c1ccccc1 (stereo unspecified)	%	98
COc1cc(-c2csc(NC(=O)Nc3ccc(Cl)c(C(F)(F)F)c3)n2)cc(OC)c1OC	%	-6.43
O=C(N/N=C/c1cc([N+](=O)[O-])ccc1O)c1cccc2ccccc12	%	42.6
Cc1ccc(S(=O)(=O)N(C)CCCCCC(=O)O)cc1	%	99.7
Cc1ccc(C(C)C)c(O)c1NC(=O)OC(C)C	%	99.4
CN(C)CCCN1c2ccccc2CCc2ccc(Cl)cc21	%	85.7
Cc1ccc(-c2c3c(N)nc(-c4cccnc4)nc3nc3c2c(C)nn3-c2ccccc2)cc1	%	52.2
Cc1cc(Cl)ccc1Nc1nc(C(F)(F)F)ccc1C(=O)N/N=C/c1c(Cl)cccc1Cl	%	7.42
CC(C)(C)OC(=O)CN1CCc2c(sc3ncnc(N/N=C/c4ccccc4Br)c23)C1	%	83.4
CCN(CC)CCCC(C)N=C(C1=C(C(=NC(C)CCCN(CC)CC)c2cccc(OC)c2)C(=O)NC1=O)c1cccc(OC)c1 (stereo unspecified)	%	-43.4
CCCCCC(=O)O[C@]1(C(C)=O)CCC2C3CCC4=CC(=O)CC[C@]4(C)C3CC[C@@]21C (stereo partly specified)	%	52.7
c1cnc2[nH]cc(-c3nc(-c4ccsc4)cs3)c2c1	%	74.4
CNS(=O)(=O)Oc1ccc(-c2ccc3occc3c2)cc1	%	93.8
Cc1cn(-c2cc(F)cc(NC(=O)c3ccc(C)c(Nc4nccc(-c5cccnc5)n4)c3)c2)cn1	%	-12.3
Nc1ncnc2c1ncn2C1(CO)OCC(O)C(O)C1O (stereo unspecified)	%	107
COc1cccc(-c2nc3sccn3c2-c2cccc(S(C)(=O)=O)c2)c1	%	90.1
CN(C)CCOc1cccc(NC2=C(Cl)C(=O)C(Nc3cccc(OCCN(C)C)c3)=C(Cl)C2=O)c1	%	-74.6
Cc1ccc(-n2nnnc2N)c(C)c1	%	115
COC1=CC(=O)OC(c2ccc(OC)cc2)C1 (stereo unspecified)	%	110
COc1cc2cc(Oc3ccc(NC(=O)Nc4ccc(Cl)c(Cl)c4)cc3)c(C)nc2cc1OC	%	7.74
COc1cc2cc(Oc3ccc(NC(=O)Nc4ccc(Cl)c(C(F)(F)F)c4)cc3)c(C)nc2cc1OC	%	4.49
COc1cc(/C=C/c2cc(/C=C/c3ccc(O)c(OC)c3)[nH]c(=O)n2)ccc1O	%	76.2
COc1ccc(Cc2cnc(N)nc2N)cc1OC	%	99.1
C=CCSC(CC)(CC)C(=O)NC	%	97.8
OC(CCN1CCCC1)(c1ccccc1)C1CCCCC1 (stereo unspecified)	%	94.3
C/C=C/CSC(C)(C)C(=O)NC	%	100

* * *

Tested on: NCI-H522 lung
assayExplanation: NCI-60 one-dose screen, 48 h (100 = growth as untreated, 0 = no growth, -100 = all killed)
conditionsUsed: 10 µM
About 83,000 compounds went through this panel and 20% of them were active in at least one assay; those are over-represented in the sample as a whole.
Lab note: compare growth with 80%, writing Y if less and N if equal or more.

compound	className
Cc1ccc(C(C)C)c(O)c1NC(=O)OC(C)C	N
CCn1c(SC/C(=N/O)c2ccccc2)nnc1-c1ccccc1	N
COc1ccc(-c2nn(-c3cccc(Cl)c3)cc2-c2c(C#N)c(=O)n3[nH]c(-c4ccccc4)nc3c2C#N)cc1	Y
O=C(O)c1ccc(-n2cc(CNc3ccc(Cl)cc3)c(-c3ccccc3)n2)cc1	Y
COc1ccc2c(c1)CC=C1[C@@H]2CC[C@]2(C)C(=O)/C(=N/O)C[C@@H]12	N
COc1cc(OC)c2c(=O)c(O)c(-c3ccccc3)oc2c1	Y
COc1cc(-c2ccc[nH]2)[nH]c1/C=C1\N=C(C)C(C(=O)NC(C)C)=C1C	Y
Brc1ccc2c(c1)-c1ccccc1C1=NCCN12	Y
CCOC(=O)c1cc(C(=O)c2cc(OC)c(OC)c(OC)c2)n2c1ccc1c3cccnc3ccc12	Y
C=CCN(CC=C)C(=O)[C@H](CC)[C@@H]1CC[C@@H](C)[C@@H]([C@H](C)[C@@H](O)[C@@H](C)C(=O)[C@H](CC)C2O[C@]3(C=CC(=O)[C@]4(CC[C@@](C)([C@H]5CC[C@](O)(CC)[C@H](C)O5)O4)O3)[C@H](C)C[C@@H]2C)O1 (stereo not given in full)	Y
Nc1ccc(/C=N/Nc2ccnc3c(O)cccc23)c2cccnc12	Y
CC[C@@H](C(=O)[C@H](C)[C@H](O)[C@@H](C)[C@H]1O[C@H]([C@@H](CC)C(=O)N(CC)CC)CC[C@H]1C)C1O[C@]2(C=C[C@@H](O)[C@]3(CC[C@@](C)([C@H]4CC[C@](O)(CC)[C@H](C)O4)O3)O2)[C@H](C)C[C@@H]1C (stereo not given in full)	Y
CCOC(=O)c1cocc1C(=O)O	N
COc1ccc(-c2nn(-c3cccc(Cl)c3)cc2-c2cc(-c3cccs3)[nH]c(=S)n2)cc1	Y
Cc1cc(SC#N)cc(C(C)(C)C)c1O	Y
COc1ccc(C(=O)c2cc3c(OC)c(OC)c(OC)cc3[nH]2)cc1	Y
Cc1ccc(C2NC(=S)N3C(c4ccc(C)cc4)NC(=S)N23)cc1 (stereo not given)	Y
